Attribute: log10 of ED50
# Test system: rats
# ASSAY: Test for antiinflammatory activity in rats (carrageenin paw)
# Assay type: in vivo
# CONDITION_DETAILS: Rattus norvegicus, po; rats, by gavage 1 hour prior to carrageenin injection into the paw; read-out: Antiinflam-matory test ED50
Heads up, the numbers here are log10 of ED50 in mg/kg units.

COc1ccc(-c2nc(-c3c(F)cccc3F)[nH]c2-c2ccc(OC)cc2)cc1 ... 2.48
COc1ccc2cc([C@H](C)C(=O)O)ccc2c1 [Compound 14, Naproxen, reference compound] ... 1.00

Record request: log10 of ED50 value, item `COc1ccc(-c2nc(-c3cccc(F)c3)[nH]c2-c2ccc(OC)cc2)cc1`
1.58

Could you tell me which log10 of ED50 is on file for `COc1ccc(-c2nc(-c3cc(F)ccc3F)[nH]c2-c2ccc(OC)cc2)cc1` ?
2.04

Requested read-out: log10 of ED50. Entry: COc1ccc(-c2nc(C(F)(F)F)[nH]c2-c2ccc(OC)cc2)cc1 [Compound 11, reference compound]
1.40

I'd like to know its log10 of ED50. The compound in question is `COc1ccc(-c2nc(-c3cc(F)cc(F)c3)[nH]c2-c2ccc(OC)cc2)cc1`
2.18

Recorded log10 of ED50 of `COc1ccc(-c2nc(-c3cccc(F)c3F)[nH]c2-c2ccc(OC)cc2)cc1` , please.
2.08

Return reported log10 of ED50; argument: `COc1ccc(-c2nc(-c3ccc(F)c(F)c3)[nH]c2-c2ccc(OC)cc2)cc1`
1.18

Bench note: what log10 of ED50 did `COc1ccc(-c2nc(-c3ccc(F)cc3F)[nH]c2-c2ccc(OC)cc2)cc1` show?
1.67

Item `COc1ccc(-c2nc(-c3ccc(F)cc3)[nH]c2-c2ccc(OC)cc2)cc1` has what recorded log10 of ED50?
1.15

Report log10 of ED50 for `COc1ccc(-c2nc(-c3ccccc3F)[nH]c2-c2ccc(OC)cc2)cc1` please.
2.11
